Biological target: Thymidylate kinase (Plasmodium falciparum (isolate 3D7), UniProt Q8I4S1)
Sequence (Q8I4S1 whole entry): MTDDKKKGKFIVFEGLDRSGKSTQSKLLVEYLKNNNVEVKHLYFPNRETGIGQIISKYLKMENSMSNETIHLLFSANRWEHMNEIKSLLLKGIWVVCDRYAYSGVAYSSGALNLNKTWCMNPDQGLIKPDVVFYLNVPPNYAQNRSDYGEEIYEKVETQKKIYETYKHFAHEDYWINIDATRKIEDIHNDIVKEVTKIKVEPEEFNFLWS
Test: Inhibition of recombinant Plasmodium falciparum TMPK using TMP as substrate by pyruvate kinase and lactate dehydrogenase enzyme coupled assay
Would you kindly list pKi for each of these molecules?
One number for each entry, as −log10 of the molar value.

See these solved cases before continuing.
STRUCTURE SMILES	ENDPOINT VALUE
COc1ccccc1NC(=O)NC[C@H]1O[C@H](n2cc(C)c(=O)[nH]c2=O)C[C@@H]1O	3.86
CCOC(=O)CCNC(=O)NC[C@H]1O[C@@H](n2cc(C)c(=O)[nH]c2=O)C[C@@H]1O	3.70
COc1cccc(NC(=O)NC[C@H]2O[C@H](n3cc(C)c(=O)[nH]c3=O)C[C@@H]2O)c1	3.80
Cc1cn([C@@H]2C[C@H](O)[C@@H](CNC(=O)NCc3ccccc3)O2)c(=O)[nH]c1=O	3.70
Cc1cn([C@@H]2C[C@H](O)[C@@H](CNC(=O)Nc3ccc(Cl)cc3)O2)c(=O)[nH]c1=O	3.94

In the following, a different molecule is considered.
Item `Cc1cn([C@@H]2C[C@H](O)[C@@H](CNC(=O)c3ccc([N+](=O)[O-])cc3)O2)c(=O)[nH]c1=O` has what recorded pKi?
3.27
